assay target: T1, HLA-A*02:01 (human)
T1 construct: MHC class I monomer of the UV-ligand exchange assay; also called peptide-receptive MHC molecules; MHC class I
assay comment: UV peptide-exchange ELISA
Reported peptide exchange yield by item:

ILDEIGADVQA : 50 to 75%

Prompt: Identify measured peptide exchange yield corresponding to ALAKPPVVSV
Completion: 50 to 75%

Prompt: Identify measured peptide exchange yield corresponding to KIMDYSLLLGV
Completion: ≥ 75%

Prompt: Identify measured peptide exchange yield corresponding to AVLHLLLSV
Completion: 20 to 50%
